- Tested on: UO-31 renal
- Run description: NCI-60 one-dose screen, 48 h (100 = growth as untreated, 0 = no growth, -100 = all killed)
- Condition details: 10 µM unless noted
Compounds without any hit were thinned out: in the full panel of roughly 83,000, 20% have a hit.
Label condition met when growth is strictly below 70%; otherwise label condition not met.

Compound	Group label
CCOC(=O)C1CCNC(=O)C1=O (stereo unspecified)	condition not met
O=[N+]([O-])c1cnc(Sc2ccncn2)s1	condition met
CC(NNC(C)c1ccccc1)c1ccccc1 (stereo unspecified)	condition not met
CCN1CCN(c2nc(NNC(=O)c3ccccc3)nc(N3CCN(C(c4ccccc4)c4ccccc4)CC3)n2)CC1	condition met
Nc1nc(Nc2cc(Cl)cc(Cl)c2)nn1S(=O)(=O)c1ccc2ccccc2c1	condition met
O=C(O)COc1ccc(-c2cssc2=S)cc1	condition not met

In the record for Cc1nn(-c2ccc(Cl)cc2)c2ncnc(N/N=C/c3cccc([N+](=O)[O-])c3)c12 , is growth less than 70%? condition not met

is_below(growth, 70%) for COc1ccc(Nc2[nH]n3c(=O)cc(-c4ccccc4)nc3c2C(=O)Nc2ccc(C)cc2)c(OC)c1 ? condition not met

Consider the compound COc1ccc(/C=C2\Oc3cc(OCCCN4CCCC4)ccc3C2=O)c(OC)c1 . Is its growth strictly less than 70%? condition not met

Does this compound meet the criterion growth < 70%? CCCCCCCCN(CCCCCCCC)CCCCCCNc1cc(OC)cc2cccnc12 condition met

###

- Tested on: K-562 leukemia
- Run description: NCI-60 one-dose screen, 48 h
- Condition details: 10 µM unless noted
The panel holds about 83,000 compounds, 20% with a hit somewhere; the sample as a whole holds those more often. Activity calls are given as the source filed them. The calls were made as follows: active = growth percent below 10; inactive = the rest.
// classify into 1.0 for active, 0.0 for inactive

Take a look at these entries with their results.
Compound	Group label
Nc1ncnc2c1c(-c1ccc(Oc3ccccc3)cc1)nn2C[C@@H]1SSC[C@@H]1O	1.0
CCN(CC)c1ccc(/C=C2\Oc3ccc(O)c(I)c3C2=O)cc1	0.0
CCN1CCN(c2nc(NNC(=O)c3ccccc3)nc(N3CCN(C(c4ccccc4)c4ccccc4)CC3)n2)CC1	1.0

Per the assay record, what outcome was assigned to COc1ccc2c(c1)OC1=C(C(=O)OC1)C2c1cc(OC)c2c(c1)OCO2 (stereo not given) ? 1.0

###

- Tested on: BT-549 breast
- Run description: NCI-60 one-dose screen, 48 h (100 = growth as untreated, 0 = no growth, -100 = all killed)
- Condition details: 10 µM unless noted
The panel holds about 83,000 compounds, 20% with a hit somewhere; the sample as a whole holds those more often.
Test readout: growth (%)
One number for each entry, in %.

Known growth results, listed for orientation:
1. CCOC(=O)c1cn2c3c(cc(C)cc3c1=O)C(=O)/C(=C/c1ccccc1)C2 84.3
2. COc1cc(/C=C/C(=O)N2CCN(C(=O)/C=C/c3cc(OC)c(OC)c(OC)c3)CC2)cc(OC)c1OC 88.1
3. COc1cc(-c2nc(N=Nc3c(O)[nH]c4ccc(Br)cc34)[nH]c(=O)c2C#N)cc(OC)c1OC 105
4. Nc1cc2c(cc1C(=O)c1cccc(F)c1)OCCO2 84.5
5. CCCOC(=O)n1cccc1 103

Could I get growth for every one of these entries?
1. CCN1CCN(CC(=O)N2c3cccc4cccc(c34)N(C(=O)CN3CCN(CC)CC3)C2c2cn(-c3ccccc3)nc2-c2cccc([N+](=O)[O-])c2)CC1
2. CCC1=CCC[C@@]2(C)CCC[C@@]3(C)CCCC(C)(C)[C@]1([O-])[O+]32
3. CCC(=O)Oc1ccc(/C(=C(/C)Cc2cccc(OC)c2)c2ccc(OCCN(C)C)cc2)cc1

80.7
101
95.7

Reading of growth for COc1ccc(Nc2ncccc2C(=O)NCc2cn(Cc3cccc(Oc4ccccc4)c3)nn2)c(OC)c1 with BT-549 breast: 43

The origin of these recorded values is PubChem BioAssay (NCI).
